biological target: Melanocortin receptor 5 (Homo sapiens, UniProt P33032); experiment: Agonist activity against human Melanocortin 5 receptor at 10 uM
Sequence (P33032 whole entry): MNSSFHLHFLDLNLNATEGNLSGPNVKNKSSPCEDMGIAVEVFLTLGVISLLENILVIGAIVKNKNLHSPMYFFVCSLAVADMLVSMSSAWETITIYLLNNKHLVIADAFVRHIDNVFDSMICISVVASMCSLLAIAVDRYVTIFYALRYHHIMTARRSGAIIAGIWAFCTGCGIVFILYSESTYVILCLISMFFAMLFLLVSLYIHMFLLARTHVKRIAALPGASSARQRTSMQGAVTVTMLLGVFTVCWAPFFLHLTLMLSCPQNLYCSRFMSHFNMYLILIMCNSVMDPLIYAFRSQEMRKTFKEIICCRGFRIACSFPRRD
Record form. Attribute: Activity. Fill in for each entry.
One number for each entry, in %.

These recorded examples may help you get a feel for the data.
CC(C)[C@H](NC(=O)[C@@H](N)Cc1ccc(O)cc1)C(=O)N[C@@H]1CSSC[C@@H](C(=O)N[C@@H](CCCN=C(N)N)C(=O)N[C@@H](Cc2ccccc2)C(=O)NCC(N)=O)NC(=O)[C@H](Cc2c[nH]c3ccccc23)NC(=O)[C@H](CCCN=C(N)N)NC(=O)[C@@H](Cc2ccccc2)NC(=O)[C@H](Cc2c[nH]cn2)NC(=O)CNC1=O
16
CCCC[C@H](NC(=O)[C@@H](NC(=O)[C@@H](N)Cc1ccc(O)cc1)C(C)C)C(=O)N[C@H]1CC(=O)NCCCC[C@H](C(=O)N[C@@H](CCCN=C(N)N)C(=O)N[C@@H](Cc2ccccc2)C(=O)NCC(N)=O)NC(=O)[C@@H](Cc2c[nH]c3ccccc23)NC(=O)[C@H](CCCN=C(N)N)NC(=O)[C@@H](Cc2ccccc2)NC(=O)[C@H](Cc2c[nH]cn2)NC1=O
100
CCCC[C@H](NC(=O)[C@@H](NC(=O)[C@@H](N)Cc1ccc(O)cc1)C(C)C)C(=O)NCC(=O)N[C@@](C)(Cc1ccccc1)C(=O)N[C@@H](Cc1ccccc1)C(=O)N[C@@H](CCCN=C(N)N)C(=O)N[C@H](Cc1ccc2ccccc2c1)C(=O)N[C@@H](CC(=O)O)C(=O)N[C@@H](CCCN=C(N)N)C(=O)N[C@@H](Cc1ccccc1)C(=O)NCC(N)=O
40
CCCC[C@H](NC(=O)[C@@H](NC(=O)[C@@H](N)Cc1ccc(O)cc1)C(C)C)C(=O)NCC(=O)N[C@@H](Cc1c[nH]cn1)C(=O)N[C@@H](Cc1ccccc1)C(=O)N[C@@H](CCCN=C(N)N)C(=O)N[C@H](Cc1ccc2ccccc2c1)C(=O)N[C@@H](CC(=O)O)C(=O)N[C@@H](CCCN=C(N)N)C(=O)N[C@@H](Cc1ccccc1)C(=O)NCC(N)=O
80

Let us examine a further case.
Reported Activity for `CCCC[C@H](NC(=O)[C@@H](NC(=O)[C@@H](N)Cc1ccc(O)cc1)C(C)C)C(=O)NCC(=O)N[C@@H](CCN)C(=O)N[C@@H](Cc1ccccc1)C(=O)N[C@@H](CCCN=C(N)N)C(=O)N[C@H](Cc1ccc2ccccc2c1)C(=O)N[C@@H](CC(=O)O)C(=O)N[C@@H](CCCN=C(N)N)C(=O)N[C@@H](Cc1ccccc1)C(=O)NCC(N)=O` : what is it? 100
